- Test system: HeLa
- assay.comment: Photosensitizing activity against human HeLa cells assessed as reduction in cell viability pre-incubated for 24 hrs followed by 15 mins exposure to 670 to 710 nm light at dose of 2.0 J/cm2 and measured 12 hrs after radiation by WST-8 assay
- Type: functional, cell-based
- experimental.setup: light or radiation study
# strict inequality: IC50 < 600 nM yields 1, everything else yields -1

Observe how each entry below is paired with its result.
CCC1=C(C)c2cc3[nH]c(cc4nc(c5c6[nH]c(cc1n2)c(C)c6C(=O)N(OC)C5=O)[C@@H](CCC(=O)OC)[C@@H]4C)c(C)c3/C=C/c1ccncc1	-1
CCC1=C(C)c2cc3[nH]c(cc4nc(c(CC(=O)OC)c5[nH]c(cc1n2)c(C)c5C(=O)OC)[C@@H](CCC(=O)OC)[C@@H]4C)c(C)c3/C=C/c1ccc2ccccc2n1	1
C=Cc1c(C)c2cc3nc(c4c5[nH]c(cc6nc(cc1[nH]2)C(C)=C6CC)c(/C=C/c1ccncc1)c5C(=O)C4)[C@@H](CCC(=O)OC)[C@@H]3C	1
CCC1=C(C)c2cc3[nH]c(cc4nc(c5c6[nH]c(cc1n2)c(C)c6C(=O)C5)[C@@H](CCC(=O)OC)[C@@H]4C)c(C)c3/C=C/c1ccc2ccccc2n1	-1
CCC1=C(C)c2cc3[nH]c(cc4nc(c(CC(=O)OC)c5[nH]c(cc1n2)c(C)c5C(=O)OC)[C@@H](CCC(=O)OC)[C@@H]4C)c(C)c3/C=C/c1ccncc1	1
C=Cc1c(C)c2cc3nc(c(CC(=O)OC)c4[nH]c(cc5nc(cc1[nH]2)C(C)=C5CC)c(C)c4C(=O)NCc1ccncc1)[C@@H](CCC(=O)OC)[C@@H]3C	1
CCC1=C(C)c2cc3[nH]c(cc4nc(c5c6[nH]c(cc1n2)c(C)c6C(=O)N(OC)C5=O)[C@@H](CCC(=O)OC)[C@@H]4C)c(C)c3/C=C/c1ccc2ccccc2n1	-1
C=Cc1c(C)c2cc3nc(c4c5[nH]c(cc6nc(cc1[nH]2)C(C)=C6CC)c(C)c5C(=O)N(Cc1ccncc1)C4=O)[C@@H](CCC(=O)OC)[C@@H]3C	1

Next compound, please.
# strict comparison: is reported IC50 < 600 nM? input = CCC1=C(C)c2cc3[nH]c(cc4nc(c5c6[nH]c(cc1n2)c(C)c6C(=O)C5)[C@@H](CCC(=O)OC)[C@@H]4C)c(C)c3/C=C/c1ccncc1
1

###

- assay.comment: Singlet oxygen generation assessed as comparative absorbance decay of 1,3-diphenylisobenzofuran at 1 uM at 418 nm after photoirradiation at 2.0 J/cm2 for 15 mins by spectrometry
Calls of active or inactive are those of the source. No cut-off for these calls is given here.
reported.endpoint: Activity

CCC1=C(C)c2cc3[nH]c(cc4nc(c(CC(=O)OC)c5[nH]c(cc1n2)c(C)c5C(=O)OC)[C@@H](CCC(=O)OC)[C@@H]4C)c(C)c3/C=C/c1ccncc1	Active
CCC1=C(C)c2cc3[nH]c(cc4nc(c5c6[nH]c(cc1n2)c(C)c6C(=O)N(OC)C5=O)[C@@H](CCC(=O)OC)[C@@H]4C)c(C)c3/C=C/c1ccc2ccccc2n1	Active
CCC1=C(C)c2cc3[nH]c(cc4nc(c5c6[nH]c(cc1n2)c(C)c6C(=O)N(OC)C5=O)[C@@H](CCC(=O)OC)[C@@H]4C)c(C)c3/C=C/c1ccncc1	Active
